Target protein (sequence): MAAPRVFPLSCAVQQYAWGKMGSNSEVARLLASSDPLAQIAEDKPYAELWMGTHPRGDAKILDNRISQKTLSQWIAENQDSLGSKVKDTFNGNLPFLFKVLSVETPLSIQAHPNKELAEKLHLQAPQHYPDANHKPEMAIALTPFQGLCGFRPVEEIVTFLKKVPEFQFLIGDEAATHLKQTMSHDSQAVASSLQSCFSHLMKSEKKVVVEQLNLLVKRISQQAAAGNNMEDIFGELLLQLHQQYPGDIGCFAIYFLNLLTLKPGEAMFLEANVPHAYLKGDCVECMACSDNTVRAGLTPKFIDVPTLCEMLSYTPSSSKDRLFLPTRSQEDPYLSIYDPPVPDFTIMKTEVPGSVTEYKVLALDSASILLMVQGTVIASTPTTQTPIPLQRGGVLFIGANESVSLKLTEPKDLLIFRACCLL
resultType: IC50

# itemSmiles, obsValue
measured = [
    ("C=CCn1c(=O)c(=Cc2cc(OC)c(OC)c(OC)c2)s/c1=C(/C#N)c1nc2ccccc2n1C", "> 10 µM"),
]
